- assay_explanation: Chemical stability of the compound in KH2PO4/Na2HPO4 buffer at pH 5.5 after 6 hrs by NMR spectroscopy
- Assay type: physicochemical
- measurement_conditions: pH 5.5, 6 h
measured_attribute: Stability

Worked set:
compound	Stability
O=C1c2ccncc2C(=O)c2c1ccn2CCCC1CO1 (stereo not given)	Stable
CN(C)CCc1cn(CCCCOS(C)(=O)=O)c2c1C(=O)c1ccncc1C2=O	Unstable
O=C1c2ccncc2C(=O)c2c1ccn2CCCCCCC1CO1 (stereo not given)	Stable
CN(C)CCc1cn(CCCCCCCOS(C)(=O)=O)c2c1C(=O)c1ccncc1C2=O	Unstable

Given O=C1c2ccncc2C(=O)c2c1ccn2CC1CO1 (stereo not given) , state its recorded Stability.
Stable

Origin of measurements: ChEMBL document CHEMBL1770061
